# key: entry, value: MIC
tested on: S. aureus ATCC 25923; format: cell-based, Staphylococcus aureus; details: ATCC 25923, 18 h
Peptide text beside a SMILES is read from it.
metricName: MIC

CC(C)C[C@H](NC(=O)[C@H](CC(C)C)NC(=O)[C@@H]1CCCN1C(=O)[C@H](CCCCN)NC(=O)[C@H](CCCCN)NC(=O)[C@H](CC(C)C)NC(=O)[C@H](CC(C)C)NC(=O)[C@H](CCCCN)NC(=O)[C@H](CCCCN)NC(=O)[C@H](Cc1c[nH]c2ccccc12)NC(=O)[C@@H](N)CCCCN)C(=O)N[C@@H](CCCCN)C(N)=O [P5-CT3] (H-KWKKLLKKPLLK-NH2)	3.13 µM
CC(C)C[C@H](NC(=O)[C@H](CC(C)C)NC(=O)[C@H](CCCCN)NC(=O)[C@H](CCCCN)NC(=O)[C@H](CC(C)C)NC(=O)[C@H](CC(C)C)NC(=O)[C@@H]1CCCN1C(=O)[C@H](CCCCN)NC(=O)[C@H](CCCCN)NC(=O)[C@H](CC(C)C)NC(=O)[C@H](CC(C)C)NC(=O)[C@H](CCCCN)NC(=O)[C@H](CCCCN)NC(=O)[C@H](Cc1c[nH]c2ccccc12)NC(=O)[C@@H](N)CCCCN)C(=O)N[C@@H](CCCCN)C(N)=O [P5-CT1] (H-KWKKLLKKPLLKKLLK-NH2)	1.56 µM
CC(C)C[C@H](NC(=O)[C@H](CCCCN)NC(=O)[C@H](CCCCN)NC(=O)[C@H](CC(C)C)NC(=O)[C@H](CC(C)C)NC(=O)[C@@H]1CCCN1C(=O)[C@H](CCCCN)NC(=O)[C@H](CCCCN)NC(=O)[C@H](CC(C)C)NC(=O)[C@H](CC(C)C)NC(=O)[C@H](CCCCN)NC(=O)[C@H](CCCCN)NC(=O)[C@H](Cc1c[nH]c2ccccc12)NC(=O)[C@@H](N)CCCCN)C(N)=O [P5-CT2] (H-KWKKLLKKPLLKKL-NH2)	1.56 µM
